meta.source: ChEMBL document CHEMBL1135925

# TARGET DESC: Cannabinoid receptor 1 (Homo sapiens) (UniProt P21554)
# Sequence (P21554 whole entry): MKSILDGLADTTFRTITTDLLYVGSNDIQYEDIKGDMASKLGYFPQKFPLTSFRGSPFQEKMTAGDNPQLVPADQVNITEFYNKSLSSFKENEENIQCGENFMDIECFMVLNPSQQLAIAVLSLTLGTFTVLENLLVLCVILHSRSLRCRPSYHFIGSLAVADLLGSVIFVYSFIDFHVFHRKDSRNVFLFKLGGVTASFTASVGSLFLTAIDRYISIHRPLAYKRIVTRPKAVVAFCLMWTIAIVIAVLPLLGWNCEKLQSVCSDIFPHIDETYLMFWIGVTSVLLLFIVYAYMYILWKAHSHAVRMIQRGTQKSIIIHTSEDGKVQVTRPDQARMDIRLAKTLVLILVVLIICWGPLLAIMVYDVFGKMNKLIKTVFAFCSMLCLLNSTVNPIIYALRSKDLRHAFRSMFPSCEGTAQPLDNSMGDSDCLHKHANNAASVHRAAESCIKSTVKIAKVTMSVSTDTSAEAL
# ASSAY TEXT: Percent displacement of [3H]-SR-141716A, by compound at 10 uM, in transfected CHO cells expressing the human cannabinoid receptor 1.
# Format: cell-based
MEASURED QUANTITY: Displacement (%)

Below, each entry is followed by its recorded Displacement result.
O=C1NC(Cc2c[nH]c3ccccc23)C(=O)N1Cc1cccc2ccccc12 (stereo unspecified); 59.8
CCCCCCN1C(=O)NC(Cc2c[nH]c3ccccc23)C1=O (stereo unspecified); 28.8

A. O=C1NC(Cc2c[nH]c3ccccc23)C(=O)N1CCc1ccccc1 (stereo unspecified)
B. O=C1NC(Cc2c[nH]c3ccccc23)C(=O)N1CCCc1ccccc1 (stereo unspecified)
Prompt line: Endpoint returns the identifier whose Displacement is numerically larger, either A or B . Your answer should be the label of the entry you select.
Response line: A

====

# ASSAY TEXT: Lipophilicity (calculated by CLIP)
MEASURED QUANTITY: CLIP

CCCN1C(=O)NC(c2ccccc2)(c2ccccc2)C1=O; 3.84
CCCCCN1C(=O)NC(c2ccccc2)(c2ccccc2)C1=O; 4.8
CC(C)N1C(=O)NC(c2ccccc2)(c2ccccc2)C1=O; 2.89
CCCCCCCCN1C(=O)NC(c2ccccc2)(c2ccccc2)C1=O; 6.5
CCCCCCN1C(=O)NC(c2ccc(F)cc2)(c2ccc(F)cc2)C1=O; 5.81
O=C1NC(Cc2c[nH]c3ccccc23)C(=O)N1CCCc1ccccc1 (stereo not drawn); 2.8

A. O=C1NC(c2ccc(Br)cc2)(c2ccc(Br)cc2)C(=O)N1CCCO
B. CCCCCCCCN1C(=O)NC(c2ccc(F)cc2)(c2ccc(F)cc2)C1=O
C. O=C1NC(c2ccccc2)(c2ccccc2)C(=O)N1CCN1CCOCC1
Prompt line: With regard to CLIP, arrange the entries in ascending order, please. List the labels in the requested order.
Response line: C, A, B
(C: 2.16, A: 3.76, B: 6.94)

====

# ASSAY TEXT: Lipophilicity (calculated by CLIP)
MEASURED QUANTITY: CLIP

Examples from the recorded data:
CN(C)CCN1C(=O)NC(c2ccccc2)(c2ccccc2)C1=O; 2.83
CCCCCCN1C(=O)NC(c2ccccc2)(c2ccccc2)C1=O; 5.37

a. CCCCCCN1C(=O)NC(c2ccc(OC)cc2)(c2ccc(OC)cc2)C1=O
b. O=C1NC(Cc2c[nH]c3ccccc23)C(=O)N1CCc1ccccc1 (stereo unspecified)
Prompt line: Of the two listed items, which has the higher CLIP? First: a Second: b Please indicate the selected item by its label.
Response line: a

A. CCCCCCN1C(=O)NC(c2ccc(Br)cc2)(c2ccc(Br)cc2)C1=O
B. O=C1NC(c2ccccc2)(c2ccccc2)C(=O)N1Cc1ccccc1
C. CCCCN1C(=O)NC(Cc2c[nH]c3ccccc23)C1=O (stereo unspecified)
Prompt line: // smallest CLIP at index 0, largest at the end Enter labels, ranked according to the request.
Response line: C, B, A

====

# ASSAY TEXT: Capacity factor (log Kw) was measured
# Type: ADME
# MEASUREMENT CONTEXT: RP-HPLC, methanol/phosphate buffer pH 7.4, extrapolated to 0% methanol
MEASURED QUANTITY: Log Kw

Examples from the recorded data:
O=C1NC(Cc2c[nH]c3ccccc23)C(=O)N1Cc1cccc2ccccc12 (stereo unspecified); 3.08
CCCCN1C(=O)NC(c2ccccc2)(c2ccccc2)C1=O; 3.46
O=C1NC(c2ccc(Br)cc2)(c2ccc(Br)cc2)C(=O)N1CCN1CCOCC1; 4.5
CN(C)CCN1C(=O)NC(c2ccccc2)(c2ccccc2)C1=O; 3
CCCCCCN1C(=O)NC(Cc2c[nH]c3ccccc23)C1=O (stereo unspecified); 3.17
CCCCN1C(=O)NC(Cc2c[nH]c3ccccc23)C1=O (stereo unspecified); 2.35

1. CCCCCCN1C(=O)NC(c2ccc(Br)cc2)(c2ccc(Br)cc2)C1=O
2. CCCN1C(=O)NC(c2ccccc2)(c2ccccc2)C1=O
Prompt line: Choose between 1 and 2 : whose measured Log Kw value is numerically larger? Record your answer as the label of the chosen record.
Response line: 1
(1: 6.14, 2: 2.93)

I. CCCCCCCN1C(=O)NC(c2ccc(Br)cc2)(c2ccc(Br)cc2)C1=O
II. O=C1NC(c2ccccc2)(c2ccccc2)C(=O)N1CCN1CCCCC1
Prompt line: In the pair I and II , the larger recorded Log Kw belongs to which? Please respond with the label that marks your chosen entry.
Response line: I
(I: 6.65, II: 4.11)
